# studySystem: UniProtKB P17948
# Sequence (P17948 27-1338): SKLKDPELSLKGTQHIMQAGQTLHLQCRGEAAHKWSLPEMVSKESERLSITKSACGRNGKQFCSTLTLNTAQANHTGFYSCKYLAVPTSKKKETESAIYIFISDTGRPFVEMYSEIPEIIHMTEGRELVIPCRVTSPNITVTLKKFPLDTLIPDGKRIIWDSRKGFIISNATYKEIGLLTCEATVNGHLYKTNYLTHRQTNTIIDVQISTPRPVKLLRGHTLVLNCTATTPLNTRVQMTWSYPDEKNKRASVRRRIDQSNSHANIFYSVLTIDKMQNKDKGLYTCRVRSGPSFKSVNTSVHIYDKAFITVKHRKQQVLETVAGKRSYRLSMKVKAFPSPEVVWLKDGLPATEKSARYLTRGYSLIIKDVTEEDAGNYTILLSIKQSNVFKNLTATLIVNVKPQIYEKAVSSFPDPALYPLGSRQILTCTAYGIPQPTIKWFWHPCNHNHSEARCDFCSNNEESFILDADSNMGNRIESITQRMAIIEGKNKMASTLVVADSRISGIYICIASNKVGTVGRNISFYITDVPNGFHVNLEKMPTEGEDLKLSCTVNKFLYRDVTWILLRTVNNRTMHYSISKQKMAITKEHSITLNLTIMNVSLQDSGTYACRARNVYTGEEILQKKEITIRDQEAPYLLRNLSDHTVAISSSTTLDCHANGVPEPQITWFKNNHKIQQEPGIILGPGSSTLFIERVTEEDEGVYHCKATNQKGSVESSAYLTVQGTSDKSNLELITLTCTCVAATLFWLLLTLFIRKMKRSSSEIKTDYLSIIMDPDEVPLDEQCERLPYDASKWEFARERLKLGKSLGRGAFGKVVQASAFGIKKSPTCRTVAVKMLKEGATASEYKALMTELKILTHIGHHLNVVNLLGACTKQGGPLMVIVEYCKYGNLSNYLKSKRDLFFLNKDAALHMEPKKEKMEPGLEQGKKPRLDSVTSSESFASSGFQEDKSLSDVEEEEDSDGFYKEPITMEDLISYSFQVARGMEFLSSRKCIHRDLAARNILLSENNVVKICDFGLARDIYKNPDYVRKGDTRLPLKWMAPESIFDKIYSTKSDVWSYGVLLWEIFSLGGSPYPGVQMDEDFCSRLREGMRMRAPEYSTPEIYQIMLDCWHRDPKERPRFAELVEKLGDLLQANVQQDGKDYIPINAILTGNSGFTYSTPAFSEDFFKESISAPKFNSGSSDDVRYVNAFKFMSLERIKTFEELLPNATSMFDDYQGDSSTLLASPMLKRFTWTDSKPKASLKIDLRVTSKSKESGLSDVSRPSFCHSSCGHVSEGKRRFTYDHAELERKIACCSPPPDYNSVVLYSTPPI
# testMethodNotes: In vitro kinase activity assay (HDB Kinase Selectivity Profiling)
# Format: biochemical
# conditionNotes: Kinase Glo Plus assay format
pIC50: −log10 of the molar value.

{"molecule": "Cc1ccccc1NS(=O)(=O)c1ccc2c(c1)/C(=C/c1nc3ccccc3[nH]1)C(=O)N2 [Indo5]", "pIC50": "< 5.00"}

----------
# Tested on: Ba/F3-Tpr-Met cells
# testMethodNotes: cells
# conditionNotes: Mus musculus, read-out: IC50 of IL-3-independent growth
pIC50: −log10 of the molar value.
readoutName: pIC50

{"molecule": "Cc1ccccc1NS(=O)(=O)c1ccc2c(c1)/C(=C/c1nc3ccccc3[nH]1)C(=O)N2 [Indo5]", "readoutName": "pIC50", "resultNumber": 6.21}

The values you see were collected from paper PMC6421704.
